tested on: SK-OV-3; experiment: NCI tumour cell line growth inhibition, 48 h
Activity calls are given as the source filed them. Rule as the data show it: active = GI50 up to about 1.1 µM and inactive = higher.
property.name: GI50

Before answering, review these 2 worked examples.
* COc1cc(C(O)C(=O)c2cnc3cc([N+](=O)[O-])ccc3n2)ccc1O (centres undefined) | > 100 µM (inactive)
* Cc1nn(-c2ccccc2)c(C)c1/C=N/NC(=O)c1sc(=S)n(-c2ccc(Cl)cc2)c1N | 3.87 µM (inactive)

// for each compound below, give its GI50
1. O=C(CSCC(=O)N/N=C/c1cccc(C(F)(F)F)c1)N/N=C/c1cccc(C(F)(F)F)c1
2. Nc1ccc(S(=O)(=O)c2ccc(/N=[N+](\[O-])c3ccc(S(=O)(=O)c4ccc(N)cc4)cc3)cc2)cc1
3. CC(C)(C)OC(=O)NCCCCC(N)NC(=O)c1ccccc1 (centres undefined)
4. CCCCCCCCNC(=O)C1=C(C)NC(C)=C(C(=O)NCCCCCCCC)C1
5. Cc1c(-c2c(C)c3ccccc3n2S(=O)(=O)c2ccccc2)n(S(=O)(=O)c2ccccc2)c2ccccc12
6. COC(=O)c1nc2n(n1)-c1ccccc1C(=O)N(Cc1ccccc1)C2

> 100 µM (inactive)
24.9 µM (inactive)
> 100 µM (inactive)
> 100 µM (inactive)
> 82.6 µM (inactive)
> 100 µM (inactive)

// returns reported GI50 for input CCCCCCCCC1C(C)c2c([nH]c3ccccc23)C2C(=O)N(c3ccccc3)C(=O)C21 (centres undefined)
28.7 µM (inactive)

----------
tested on: HOP-62; experiment: NCI tumour cell line growth inhibition, 48 h
The source made the active and inactive calls. Rule as the data show it: active = GI50 up to about 1.1 µM and inactive = higher.
property.name: GI50

* O=C(CC1(O)C(=O)Nc2c(Cl)cc(Cl)cc21)c1cccc([N+](=O)[O-])c1 (stereo unspecified) | 50.6 µM (inactive)
* O=c1c(-c2cccc3ccccc23)c(-c2cccc3ccccc23)c1=O | 3.57 µM (inactive)

// for each compound below, give its GI50
1. O=C1CCCC2COc3ccc(O)c1c32 (stereo unspecified)
2. COC(=O)CCC(NC(=S)N/N=C/c1cccs1)C(=O)OC (stereo unspecified)
3. Cc1nc2ccc(Br)cc2c(=O)n1-c1ccc(N)cc1
4. Cc1cccc(NC(=S)Nc2ccc([N+](=O)[O-])cc2)n1
5. CN1c2ccccc2C(=O)NC12CCNCC2

1: > 100 µM (inactive); 2: > 100 µM (inactive); 3: > 100 µM (inactive); 4: > 100 µM (inactive); 5: > 100 µM (inactive)

----------
tested on: MOLT-4; test: NCI tumour cell line growth inhibition, 48 h
Activity calls are given as the source filed them. Cut-off read from the data, not from the text of the source: active = GI50 up to about 1.1 µM and inactive = higher.
Give GI50 for every item shown.

Before answering, review these 5 worked examples.
* Cc1nn(C(=O)c2ccccc2O)c2c1C(c1ccc(O)cc1)SC(=N)N2 (stereo unspecified) | 1.33 µM (inactive)
* COc1cccc(C23CCCC(C2)NCC3Br)c1OC (stereo unspecified) | 45 µM (inactive)
* Cc1no[n+]([O-])c1/C=N/NS(=O)(=O)c1ccccc1 | > 100 µM (inactive)
* O=C1Nc2ccccc2/C1=N/N=C1NCCCCN1 | > 100 µM (inactive)
* CCOP(=O)(OCC)C(F)(F)c1ccc(CC(NC(=O)OC(C)(C)C)C(=O)O)cc1 (stereo unspecified) | > 10 µM (inactive)

Let us move to another entry and its GI50.
Identify the measured GI50 of CCC(C)(C)c1ccc(Oc2cccc(C(=O)O)c2)cc1 for MOLT-4.
29.9 µM (inactive)
